Listed below: EC50 values for each entry.
Tested on: HCV 1b_Huh-Luc/Neo-ET cell line persistently expressing a bicistronic genotype 1b replicon in Huh 7 cells
experiment: HCV replicon assay (luciferase readout)
Assay type: cell-based
condition summary: Hepatitis C virus, Huh-7, 72 h, read-out: Inhibition of HCV genotype 1b

compound	EC50
C[C@@H](NC(=O)[C@@H]1CCCN1C(=O)[C@H](NC(=O)C1CC1)c1ccccc1)c1ccc(C#Cc2ccc(-c3cnc([C@@H]4CCCN4C(=O)[C@H](NC(=O)C4CC4)c4ccccc4)[nH]3)cc2)cc1	< 1 nM
COC(=O)N[C@H](C(=O)N[C@@H](C)c1ncc(-c2ccc(C#Cc3ccc(-c4cnc([C@H](C)NC(=O)[C@@H](NC(=O)OC)[C@@H](C)OC)[nH]4)cc3)cc2)[nH]1)[C@@H](C)OC	1 to 9.9 nM
COC(=O)N[C@H](C(=O)N1CCC[C@H]1c1nc(-c2cnc3cc(C#Cc4ccc(-c5cnc([C@@H]6CCCN6C(=O)[C@@H](NC(=O)OC)C(C)C)[nH]5)cc4)ccc3c2)c[nH]1)C(C)C	1 to 9.9 nM
C[C@@H](NC(=O)[C@@H]1CCCN1C(=O)[C@H](NC(=O)OC(C)(C)C)c1ccccc1)c1ccc(C#Cc2ccc(-c3cnc([C@@H]4CCCN4C(=O)[C@H](NC(=O)OC(C)(C)C)c4ccccc4)[nH]3)cc2)cc1	1 to 9.9 nM
CC(C)[C@@H](NC(=O)OC(C)(C)C)C(=O)N1CCC[C@H]1c1ncc(C#Cc2ccc(-c3cnc([C@@H]4CCCN4C(=O)[C@H](NC(=O)OC(C)(C)C)C(C)C)[nH]3)cc2)[nH]1	10 to 999 nM

The compound identified as "COC(=O)N[C@@H](CC(=O)O)C(=O)N1CCC[C@H]1c1ncc(-c2ccc(C#Cc3ccc4nc([C@@H]5CCCN5C(=O)[C@H](CC(=O)O)NC(=O)OC)[nH]c4c3)cc2)[nH]1" registered its EC50 at 10 to 999 nM

// COC(=O)NC(C(=O)N1CCC[C@H]1c1ncc(-c2ccc(C#Cc3ccc(-c4cnc([C@@H]5CCCN5C(=O)[C@@H](NC(=O)OC)C(C)C)[nH]4)cc3)cc2)[nH]1)[C@@H](C)OC (stereo partly drawn) : EC50 value = < 1 nM

Form field EC50, entry "COC(=O)N[C@@H](C(=O)N1CCC[C@H]1c1ncc(-c2ccc(C#Cc3ccc4nc([C@@H]5CCCN5C(=O)[C@H](NC(=O)OC)C(C)C)[nH]c4c3)cc2)[nH]1)C(C)C" : 10 to 999 nM

Query "COC(=O)N[C@@H](C(=O)N1CCC[C@H]1c1ncc(-c2ccc(C#Cc3ccc(-c4cnc([C@@H]5CCCN5C(=O)[C@H]5CCCO5)[nH]4)cc3)cc2)[nH]1)c1ccccc1" yields EC50 of < 1 nM

Hey, just so you know, these numbers are from patent US8865756B2.
